Test system: INS-1E rat beta cells, no cytokines, CellTiter-Glo ATP, 48 h
assayProcedure: cytokine-free beta-cell viability effect – INS-1E rat cells, ATP luminescence, cherry pick, counter-screen for beta-cell apoptosis protection project, dose response (AID 463229)
Items are presented alongside their recorded AC50.

Here's what some known entries look like.
compound: COc1ccc(CC(=O)Nc2cccc(S(=O)(=O)N3CCCCCC3)c2)cc1OC
measValue: 10 µM
--
compound: NC1=NC[C@@H](CC2CCCCC2)N1CCc1cc(C(F)(F)F)cc(C(F)(F)F)c1
measValue: 9.46 µM
--
compound: [O-][n+]1onc2c1CCc1c-2nn(-c2ccccc2Cl)[n+]1[O-]
measValue: 7.37 µM
--
compound: O=C(Nc1ccc(Cl)cc1)Nc1nnc(-c2ccncc2)s1
measValue: 4.78 µM
--
compound: N=c1c2c(n(Cc3ccc(Br)cc3)c3c1CCC3)CCCC2
measValue: 3.04 µM
--
compound: Cc1ccccc1Oc1cc(NC(=O)CCCn2nc(C)c([N+](=O)[O-])c2C)cc([N+](=O)[O-])c1
measValue: 6.44 µM

[Q] For the compound O=C(NNC(=O)C12CC3CC(CC(C3)C1)C2)c1ccccn1 , what AC50 is on record?
[A] 12.7 µM

[Q] For the compound CCCCC(=O)NC(c1ccc(Cl)cc1Cl)c1ccc2cccnc2c1O (stereo not given) , what AC50 is on record?
[A] 2.22 µM

[Q] For the compound CCOC(=O)C1=C(c2ccc(OC)cc2)C(=O)c2ccccc2C1=O , what AC50 is on record?
[A] 3.83 µM

[Q] For the compound CC(=O)N1c2ccc(S(=O)(=O)N3CCC(C(=O)N4CCN(c5cccc(C(F)(F)F)c5)CC4)CC3)cc2CC1C (stereo not given) , what AC50 is on record?
[A] 5.82 µM
